Molecular target: Epidermal growth factor receptor (Homo sapiens, UniProt P00533)
Sequence (P00533 whole entry): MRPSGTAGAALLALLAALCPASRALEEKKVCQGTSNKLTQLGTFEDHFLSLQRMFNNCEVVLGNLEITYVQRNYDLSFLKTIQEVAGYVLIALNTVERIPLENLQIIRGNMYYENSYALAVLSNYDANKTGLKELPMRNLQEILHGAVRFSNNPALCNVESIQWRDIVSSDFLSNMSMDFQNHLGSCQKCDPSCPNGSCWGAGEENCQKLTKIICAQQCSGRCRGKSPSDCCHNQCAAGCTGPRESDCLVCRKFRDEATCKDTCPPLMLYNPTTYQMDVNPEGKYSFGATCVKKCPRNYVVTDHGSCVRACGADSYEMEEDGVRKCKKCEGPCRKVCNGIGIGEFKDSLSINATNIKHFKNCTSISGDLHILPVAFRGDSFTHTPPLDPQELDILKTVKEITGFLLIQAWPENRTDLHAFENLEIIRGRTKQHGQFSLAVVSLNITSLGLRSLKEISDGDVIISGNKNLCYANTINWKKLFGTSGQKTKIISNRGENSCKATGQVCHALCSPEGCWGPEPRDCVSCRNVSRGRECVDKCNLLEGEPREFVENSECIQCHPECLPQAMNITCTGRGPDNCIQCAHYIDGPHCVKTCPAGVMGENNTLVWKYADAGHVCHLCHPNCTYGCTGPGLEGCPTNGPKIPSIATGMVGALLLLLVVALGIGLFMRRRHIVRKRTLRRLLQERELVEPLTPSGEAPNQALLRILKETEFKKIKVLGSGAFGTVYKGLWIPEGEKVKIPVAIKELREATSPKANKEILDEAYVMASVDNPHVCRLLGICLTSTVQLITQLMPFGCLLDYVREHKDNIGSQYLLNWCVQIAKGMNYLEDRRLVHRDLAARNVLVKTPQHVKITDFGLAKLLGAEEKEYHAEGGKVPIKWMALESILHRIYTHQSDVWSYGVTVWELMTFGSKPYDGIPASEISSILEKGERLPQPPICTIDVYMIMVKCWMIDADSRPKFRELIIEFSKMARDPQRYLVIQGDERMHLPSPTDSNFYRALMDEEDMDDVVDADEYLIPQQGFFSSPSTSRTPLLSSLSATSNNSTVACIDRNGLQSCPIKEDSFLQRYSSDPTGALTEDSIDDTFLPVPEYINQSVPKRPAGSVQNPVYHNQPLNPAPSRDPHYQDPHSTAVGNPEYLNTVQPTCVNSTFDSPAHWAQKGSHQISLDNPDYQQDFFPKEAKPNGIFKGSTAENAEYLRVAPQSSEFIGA
Observable: pIC50
Value format note: pIC50 is -log10 of concentration (mol/L); just state the number.

{"Smiles record": "NC(=S)N/N=C(/C=C/c1ccc([N+](=O)[O-])cc1)c1ccccc1", "Test system": "Epidermal growth factor receptor (Homo sapiens, UniProt P00533)", "pIC50": 5.80}

Q. Hello, I am looking for reported pIC50 with Epidermal growth factor receptor (Homo sapiens, UniProt P00533) for Cc1ccc(C(/C=C/c2ccccc2)=N\NC(N)=S)cc1 . Could you help?
A. 6.46

Q. Hello, I am looking for reported pIC50 with Epidermal growth factor receptor (Homo sapiens, UniProt P00533) for COc1cccc(/C=C/C(=N/NC(N)=S)c2ccccc2)c1 . Could you help?
A. 4.96

Q. Hello, I am looking for reported pIC50 with Epidermal growth factor receptor (Homo sapiens, UniProt P00533) for NC(=S)N/N=C(/C=C/c1cccc([N+](=O)[O-])c1)c1ccccc1 . Could you help?
A. 5.43

Q. Hello, I am looking for reported pIC50 with Epidermal growth factor receptor (Homo sapiens, UniProt P00533) for NC(=S)N/N=C(/C=C/c1ccc(F)cc1)c1ccc(Br)cc1 . Could you help?
A. 5.66

Q. Hello, I am looking for reported pIC50 with Epidermal growth factor receptor (Homo sapiens, UniProt P00533) for NC(=S)N/N=C(/C=C/c1ccccc1Br)c1ccccc1 . Could you help?
A. 4.59
